# Assayed System: human CD3 ed (human, UniProt P07766 23-126; P04234 22-105, limits assumed)
# Sequence (P07766 23-126 limits assumed, chain 1 of 2): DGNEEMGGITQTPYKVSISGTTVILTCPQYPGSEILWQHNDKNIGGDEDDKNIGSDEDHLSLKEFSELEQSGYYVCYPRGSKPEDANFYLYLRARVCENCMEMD
# Sequence (P04234 22-105 limits assumed, chain 2 of 2): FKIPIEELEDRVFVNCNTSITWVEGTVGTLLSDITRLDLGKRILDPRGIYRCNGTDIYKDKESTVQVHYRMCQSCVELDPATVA
# Assay Procedure: SPR Biacore T200, IgG captured on protein A, 25 C;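 further: antigens diluted in ACES running buffer at pH 7.4 were flowed over antibodies held on a CM3 chip bearing amine-coupled protein A, with buffer alone serving as blank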
Quantity Name: koff (s⁻¹)
Report the figure in s⁻¹ without appending any unit label.

Consider the worked cases shown below.
{"Binder": "dBBDu186/L100 (antibody, V domains shown, IgG format; constant regions not specified) VH: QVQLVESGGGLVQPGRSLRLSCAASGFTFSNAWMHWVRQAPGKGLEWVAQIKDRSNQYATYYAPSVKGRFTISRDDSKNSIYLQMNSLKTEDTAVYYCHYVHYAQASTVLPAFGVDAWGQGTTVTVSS VL: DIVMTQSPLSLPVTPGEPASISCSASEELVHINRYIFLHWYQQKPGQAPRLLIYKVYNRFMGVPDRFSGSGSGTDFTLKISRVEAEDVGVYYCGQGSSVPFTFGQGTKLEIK", "Quantity Name": "koff", "Unit String": "s⁻¹", "Reported Measurement": 0.0546}
{"Binder": "dBBDu186/L098 (antibody, V domains shown, IgG format; constant regions not specified) VH: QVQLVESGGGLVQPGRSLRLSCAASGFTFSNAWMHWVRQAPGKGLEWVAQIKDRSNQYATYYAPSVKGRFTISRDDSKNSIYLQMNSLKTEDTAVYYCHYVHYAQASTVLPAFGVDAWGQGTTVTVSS VL: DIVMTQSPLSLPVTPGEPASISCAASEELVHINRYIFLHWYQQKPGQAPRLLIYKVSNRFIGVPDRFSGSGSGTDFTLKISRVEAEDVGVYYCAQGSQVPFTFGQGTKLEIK", "Quantity Name": "koff", "Unit String": "s⁻¹", "Reported Measurement": 0.0209}

Lab note: measured koff of dBBDu189/L112 (antibody, V domains shown, IgG format; constant regions not specified) VH: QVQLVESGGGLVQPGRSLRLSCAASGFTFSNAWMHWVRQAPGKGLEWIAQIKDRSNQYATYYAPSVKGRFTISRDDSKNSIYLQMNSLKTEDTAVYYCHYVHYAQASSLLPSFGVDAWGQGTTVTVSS VL: DIVMTQSPLSLPVTPGEPASISCTSDQELVHMNRHTYLHWYQQKPGQAPRLLIYKVYNRFPGVPDRFSGSGSGTDFTLKISRVEAEDVGVYYCAQGTSVPFTFGQGTKLEIK was 0.01
